System: Escherichia coli TOP10;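 further: peptides expressed intracellularly from a pBAD plasmid library in pooled LB shake-flask culture, induced with 0.3% L-arabinose, DNA abundance read by NGS, three biological replicates, DESeq2 with apeglm shrinkage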
measurementDescription: shrunken log2 fold change of peptide-encoding DNA abundance (4.5 h post-induction vs induction); higher = less antimicrobial activity (less host growth inhibition)
settings: time post-induction: 4.5 h; library: site-saturation at positions 5, 18, 19, 20
Please map values of shrunken log2 fold change to classes as shown: group A = under -0.03, group B = from -0.03 up to 0.1, group C = 0.1 and over

biopolymerSequence: RRIRVRPPRLPRPRPRPQRLPRP
answerLabel: group C
//
biopolymerSequence: RRIRYRPPRLPRPRPRPHTTPRP
answerLabel: group A
//
biopolymerSequence: RRIRPRPPRLPRPRPRPCQNPRP
answerLabel: group B
//
biopolymerSequence: RRIRRRPPRLPRPRPRPNLKPRP
answerLabel: group A
//
biopolymerSequence: RRIRPRPPRLPRPRPRPVNWPRP
answerLabel: group C
//
biopolymerSequence: RRIRNRPPRLPRPRPRPTCSPRP
answerLabel: group A
//
biopolymerSequence: RRIRKRPPRLPRPRPRPNRAPRP
answerLabel: group A
//
biopolymerSequence: RRIRNRPPRLPRPRPRPWPGPRP
answerLabel: group C
//
biopolymerSequence: RRIRPRPPRLPRPRPRPYKQPRP
answerLabel: group A
//
biopolymerSequence: RRIRVRPPRLPRPRPRPKSRPRP
answerLabel: group B
//
biopolymerSequence: RRIRVRPPRLPRPRPRPMASPRP
answerLabel: group B
//
biopolymerSequence: RRIRQRPPRLPRPRPRPYYPPRP
answerLabel: group B
//
biopolymerSequence: RRIRMRPPRLPRPRPRPSVQPRP
answerLabel: group C
//
biopolymerSequence: RRIRARPPRLPRPRPRPMNYPRP
answerLabel: group A
//
biopolymerSequence: RRIRYRPPRLPRPRPRPVKTPRP
answerLabel: group A
//
biopolymerSequence: RRIRNRPPRLPRPRPRPALCPRP
answerLabel: group B
//
biopolymerSequence: RRIRPRPPRLPRPRPRPAIAPRP
answerLabel: group C
//
biopolymerSequence: RRIRLRPPRLPRPRPRPGIVPRP
answerLabel: group A
//
biopolymerSequence: RRIRQRPPRLPRPRPRPHKIPRP
answerLabel: group B
//
biopolymerSequence: RRIRNRPPRLPRPRPRPVPQPRP
answerLabel: group C
//
biopolymerSequence: RRIRQRPPRLPRPRPRPNKLPRP
answerLabel: group A
//
biopolymerSequence: RRIRKRPPRLPRPRPRPLSWPRP
answerLabel: group C
//
biopolymerSequence: RRIRVRPPRLPRPRPRPEKPPRP
answerLabel: group B
//
biopolymerSequence: RRIRSRPPRLPRPRPRPPGKPRP
answerLabel: group A
//
biopolymerSequence: RRIRNRPPRLPRPRPRPRVYPRP
answerLabel: group B
//
biopolymerSequence: RRIRVRPPRLPRPRPRPDPTPRP
answerLabel: group C
//
biopolymerSequence: RRIRSRPPRLPRPRPRPLDAPRP
answerLabel: group C
//
biopolymerSequence: RRIRTRPPRLPRPRPRPAMIPRP
answerLabel: group B
//
biopolymerSequence: RRIRMRPPRLPRPRPRPKNAPRP
answerLabel: group C
//
biopolymerSequence: RRIRSRPPRLPRPRPRPKDNPRP
answerLabel: group A
//
biopolymerSequence: RRIRERPPRLPRPRPRPIHIPRP
answerLabel: group B
//
biopolymerSequence: RRIRVRPPRLPRPRPRPQWRPRP
answerLabel: group B
//
biopolymerSequence: RRIRVRPPRLPRPRPRPVRSPRP
answerLabel: group C
//
biopolymerSequence: RRIRARPPRLPRPRPRPTFMPRP
answerLabel: group C
//
biopolymerSequence: RRIRTRPPRLPRPRPRPWDCPRP
answerLabel: group B
//
biopolymerSequence: RRIRGRPPRLPRPRPRPHVAPRP
answerLabel: group C
//
biopolymerSequence: RRIRHRPPRLPRPRPRPAKFPRP
answerLabel: group A
//
biopolymerSequence: RRIRGRPPRLPRPRPRPFVKPRP
answerLabel: group A
//
biopolymerSequence: RRIRKRPPRLPRPRPRPSAHPRP
answerLabel: group C
//
biopolymerSequence: RRIRFRPPRLPRPRPRPRQDPRP
answerLabel: group C
//
biopolymerSequence: RRIRLRPPRLPRPRPRPCFSPRP
answerLabel: group A
//
biopolymerSequence: RRIRKRPPRLPRPRPRPADFPRP
answerLabel: group C
//
biopolymerSequence: RRIRRRPPRLPRPRPRPAIVPRP
answerLabel: group C
//
biopolymerSequence: RRIRIRPPRLPRPRPRPECWPRP
answerLabel: group C
//
biopolymerSequence: RRIRNRPPRLPRPRPRPKTTPRP
answerLabel: group C
//
biopolymerSequence: RRIRSRPPRLPRPRPRPDPYPRP
answerLabel: group A
//
biopolymerSequence: RRIRRRPPRLPRPRPRPCWWPRP
answerLabel: group C
//
biopolymerSequence: RRIRQRPPRLPRPRPRPAKWPRP
answerLabel: group B
//
biopolymerSequence: RRIRLRPPRLPRPRPRPTAFPRP
answerLabel: group B
//
biopolymerSequence: RRIRCRPPRLPRPRPRPQKYPRP
answerLabel: group A
//
biopolymerSequence: RRIRRRPPRLPRPRPRPCQEPRP
answerLabel: group C
//
biopolymerSequence: RRIRMRPPRLPRPRPRPIMSPRP
answerLabel: group B
//
biopolymerSequence: RRIRYRPPRLPRPRPRPSIRPRP
answerLabel: group A
//
biopolymerSequence: RRIRYRPPRLPRPRPRPGHRPRP
answerLabel: group B
//
biopolymerSequence: RRIRSRPPRLPRPRPRPFPDPRP
answerLabel: group A
//
biopolymerSequence: RRIRARPPRLPRPRPRPQDYPRP
answerLabel: group A
//
biopolymerSequence: RRIRRRPPRLPRPRPRPPICPRP
answerLabel: group C
//
biopolymerSequence: RRIRLRPPRLPRPRPRPYWTPRP
answerLabel: group A
//
biopolymerSequence: RRIRGRPPRLPRPRPRPFHMPRP
answerLabel: group A
//
biopolymerSequence: RRIRSRPPRLPRPRPRPQVKPRP
answerLabel: group A
//
biopolymerSequence: RRIRWRPPRLPRPRPRPLRAPRP
answerLabel: group C
